Test system: Candida albicans
Test: Inhibition of SE/CYP51 in Candida albicans ATCC SC5314 assessed as lanosterol level incubated for 48 hrs by LC/MS analysis
Design: scale not given: the % may be the effect or the level left
endpoint: Activity (%)
Write the value in % as a bare number.

A selection of reference data follows.
molecule	tested.on	Activity / %
CN(C/C=C/c1ccccc1)Cc1cccc2ccccc12	Candida albicans	15.2
O=C(/C=C/c1cccc2ccccc12)NC(Cn1cncn1)c1ccccc1 (centres undefined)	Candida albicans	11.4
OC(Cn1cncn1)(Cn1cncn1)c1ccc(F)cc1F	Candida albicans	23.6

What Activity value was documented for this molecule, O=C(/C=C/c1ccc2ccccc2c1)NC(Cn1cncn1)C(=O)c1ccccc1 (centres undefined) ?
13.6

* * *

Tested on: Candida albicans
Assay: Inhibition of SE/CYP51 in Candida albicans ATCC SC5314 assessed as squalene level incubated for 48 hrs by LC/MS analysis
Set-up: scale not given: the % may be the effect or the level left
endpoint: Activity (%)
Write the value in % as a bare number.

What Activity value was documented for this compound, "CN(C/C=C/c1ccccc1)Cc1cccc2ccccc12" ?
49.5

// next record "OC(Cn1cncn1)(Cn1cncn1)c1ccc(F)cc1F"
1.8

// next record O=C(/C=C/c1ccc2ccccc2c1)NC(Cn1cncn1)C(=O)c1ccccc1 (centres undefined)
28.9

// next record O=C(/C=C/c1cccc2ccccc12)NC(Cn1cncn1)c1ccccc1 (centres undefined)
29.5

* * *

Measured MIC50 of individual entries
System: Candida albicans
Experiment: Antifungal activity against Candida albicans strain 904 assessed as reduction in fungal growth incubated for 72 hrs by CLSI protocol based broth microdilution method
Type: functional
Write the value in µg/mL as a bare number.

What MIC50 value was documented for this molecule, O=C(/C=C/c1cccc2ccccc12)NC(Cn1cncn1)c1ccccc1 (stereo not given) ?
2

// next record O=C(/C=C/c1ccc2ccccc2c1)NC(Cn1cncn1)C(=O)c1ccccc1 (stereo not given)
4

// next record "CN(C/C=C/c1ccccc1)Cc1cccc2ccccc12"
4

* * *

Assay: Inhibition of SE in Candida albicans ATCC SC5314 measured after 30 mins by HPLC analysis
endpoint: pIC50
Schema: pIC50 number; meaning minus log10 of the concentration expressed in molar units.

A selection of reference data follows.
molecule	pIC50
O=C(/C=C/c1ccc2ccccc2c1)NC(Cn1cncn1)C(=O)c1ccccc1 (stereo not drawn)	6.19
CN(C/C=C/c1ccccc1)Cc1cccc2ccccc12	6.33

Moving on to another molecule below.
What pIC50 value was documented for this molecule, O=C(/C=C/c1cccc2ccccc12)NC(Cn1cncn1)c1ccccc1 (stereo not drawn) ?
6.03

* * *

Test system: Candida albicans
Assay: Antifungal activity against Candida albicans strain 901 assessed as reduction in fungal growth incubated for 72 hrs by CLSI protocol based broth microdilution method
Assay type: functional
endpoint: MIC50 (µg/mL)
Write the value in µg/mL as a bare number.

A selection of reference data follows.
compound	tested.on	measurement.unit	MIC50
O=C(/C=C/c1ccc2ccccc2c1)NC(Cn1cncn1)C(=O)c1ccccc1 (stereo not given)	Candida albicans	µg/mL	4
O=C(/C=C/c1cccc2ccccc12)NC(Cn1cncn1)c1ccccc1 (stereo not given)	Candida albicans	µg/mL	1

What MIC50 value was documented for this compound, O=C(/C=C/c1cccc2ccccc12)NC(Cn1ccnc1)c1ccccc1 (stereo not given) ?
4

* * *

Test system: Candida albicans
Assay: Inhibition of SE/CYP51 in Candida albicans ATCC SC5314 assessed as unknown sterol level incubated for 48 hrs by LC/MS analysis
Parameters: scale not given: the % may be the effect or the level left
endpoint: Activity (%)
Write the value in % as a bare number.

A selection of reference data follows.
molecule	measurement.unit	Activity
O=C(/C=C/c1cccc2ccccc12)NC(Cn1cncn1)c1ccccc1 (centres undefined)	%	7
OC(Cn1cncn1)(Cn1cncn1)c1ccc(F)cc1F	%	6.6

Missing value: Activity, Candida albicans, entry O=C(/C=C/c1ccc2ccccc2c1)NC(Cn1cncn1)C(=O)c1ccccc1 (centres undefined) . Fill in?
6.4

// next record "CN(C/C=C/c1ccccc1)Cc1cccc2ccccc12"
5.8

* * *

Tested on: Candida albicans
Test: Induction of apoptosis against Candida albicans ATCC SC5314 assessed as necrotic cells measured after 48 hrs by Annexin V-FITC/propidium iodide staining based flow cytometry (reference value: 18.22 %)
Assay type: functional
Measured Activity of individual entries
Write the value in % as a bare number.

A selection of reference data follows.
compound	endpoint	measurement.unit	reported.measurement
OC(Cn1cncn1)(Cn1cncn1)c1ccc(F)cc1F	Activity	%	24.61
O=C(/C=C/c1ccc2ccccc2c1)NC(Cn1cncn1)C(=O)c1ccccc1 (centres undefined)	Activity	%	43.87
O=C(/C=C/c1cccc2ccccc12)NC(Cn1cncn1)c1ccccc1 (centres undefined)	Activity	%	46.23

Moving on to another compound below.
Missing value: Activity, Candida albicans, entry "CN(C/C=C/c1ccccc1)Cc1cccc2ccccc12" . Fill in?
60.92

* * *

System: Candida albicans
Assay: Induction of apoptosis against Candida albicans ATCC SC5314 assessed as viable cells measured after 48 hrs by Annexin V-FITC/propidium iodide staining based flow cytometry (reference value: 80.78 %)
Type: functional
endpoint: Activity (%)
Write the value in % as a bare number.

What Activity value was documented for this compound, O=C(/C=C/c1ccc2ccccc2c1)NC(Cn1cncn1)C(=O)c1ccccc1 (centres undefined) ?
54.66

// next record OC(Cn1cncn1)(Cn1cncn1)c1ccc(F)cc1F [FLUCONAZOLE]
74.25

// next record O=C(/C=C/c1cccc2ccccc12)NC(Cn1cncn1)c1ccccc1 (centres undefined)
52.27

// next record CN(C/C=C/c1ccccc1)Cc1cccc2ccccc12 [NAFTIFINE]
38.54

* * *

Tested on: Candida albicans
Test: Antifungal activity against Candida albicans SC5314 assessed as reduction in fungal growth incubated for 72 hrs by CLSI protocol based broth microdilution method
Assay type: functional
endpoint: MIC50 (mg/L)
Write the value in mg/L as a bare number.

molecule	MIC50 [mg/L]
CN(C/C=C/c1ccccc1)Cc1cccc2ccccc12 [NAFTIFINE]	0.5
O=C(/C=C/c1ccc2ccccc2c1)NC(C(=O)Nc1cccnc1)c1ccccc1 (stereo unspecified)	0.5
O=C(NC(Cn1ccnc1)C(=O)c1ccccc1)c1cccc2ccccc12 (stereo unspecified)	0.5
O=C(/C=C/c1ccc2ccccc2c1)NC(Cn1ccnc1)C(=O)c1ccccc1 (stereo unspecified)	0.5
O=C(/C=C/c1cccc2ccccc12)NCc1ccccc1	8

Missing value: MIC50, Candida albicans, entry O=C(/C=C/c1cccc2ccccc12)NC(Cn1ccnc1)c1ccccc1 (stereo unspecified) . Fill in?
0.125

// next record O=C(/C=C/c1cccc2ccccc12)NC(Cn1cncn1)c1ccccc1 (stereo unspecified)
0.125

// next record O=C(NC(Cn1cncn1)c1ccccc1)c1cccc2ccccc12 (stereo unspecified)
0.25

// next record O=C(/C=C/c1cccc2ccccc12)NC(Cn1ccnc1)C(=O)c1ccccc1 (stereo unspecified)
0.25

// next record OC(Cn1cncn1)(Cn1cncn1)c1ccc(F)cc1F [FLUCONAZOLE]
0.25

// next record O=C(/C=C/c1cccc2ccccc12)NC(C(=O)Nc1cccnc1)c1ccccc1 (stereo unspecified)
0.5

* * *

Tested on: Candida albicans
Test: Antifungal activity against Candida albicans SC5314 assessed as reduction in fungal growth incubated for 72 hrs by CLSI protocol based broth microdilution method
Assay type: functional
Param label: returns label 1 when MIC50 < 0.5 µg/mL, returns label 0 otherwise, including exact equality.

molecule	answer.label
O=C(/C=C/c1ccc2ccccc2c1)NC(C(=O)NCc1cccnc1)c1ccccc1 (stereo not given)	label 0
O=C(NC(Cn1cncn1)C(=O)c1ccccc1)c1ccc2ccccc2c1 (stereo not given)	label 1
O=C(/C=C/c1cccc2ccccc12)NC(C(=O)NCc1ccncc1)c1ccccc1 (stereo not given)	label 0
O=C(/C=C/c1cccc2ccccc12)NCC(=O)c1ccccc1	label 0
O=C(/C=C/c1ccc2ccccc2c1)NC(Cn1cncn1)C(=O)c1ccccc1 (stereo not given)	label 1

Quick check: MIC50 of O=C(/C=C/c1cccc2ccccc12)NC(Cn1cncn1)C(=O)c1ccccc1 (stereo not given) under 0.5 µg/mL?
label 1

* * *

Tested on: Candida albicans
Assay: Antifungal activity against Candida albicans SC5314 assessed as reduction in fungal growth incubated for 72 hrs by CLSI protocol based broth microdilution method
Assay type: functional
endpoint: MIC50 (µg/mL)
Write the value in µg/mL as a bare number.

A selection of reference data follows.
molecule	measurement.unit	MIC50
O=C(/C=C/c1ccc2ccccc2c1)NC(Cn1cncn1)c1ccccc1 (centres undefined)	µg/mL	0.25
O=C(/C=C/c1ccc2ccccc2c1)NC(C(=O)NCc1ccncc1)c1ccccc1 (centres undefined)	µg/mL	1

What MIC50 value was documented for this molecule, O=C(NC(Cn1ccnc1)C(=O)c1ccccc1)c1ccc2ccccc2c1 (centres undefined) ?
0.125

// next record O=C(/C=C/c1ccc2ccccc2c1)NC(Cn1ccnc1)c1ccccc1 (centres undefined)
0.5

// next record O=C(NC(Cn1cncn1)c1ccccc1)c1ccc2ccccc2c1 (centres undefined)
0.5

// next record O=C(NC(Cn1ccnc1)c1ccccc1)c1ccc2ccccc2c1 (centres undefined)
0.5

// next record "NC(=O)/C=C/c1cccc2ccccc12"
32

// next record O=C(/C=C/c1cccc2ccccc12)NC(C(=O)NCc1cccnc1)c1ccccc1 (centres undefined)
4
